Reference source: ChEMBL document CHEMBL1201862

Experiment: A549 cell cytotoxicity, dose response, cytotoxicity control, plate reader, cherry-pick, antagonist series (AID 743412)
Format: functional, cell-based
Activity calls are given as the source filed them. No stated cut-off is given here; in the data, actives have a measured AC50 and inactives only a lower limit.
Answer with one of the outcomes given here: active, inactive

INPUT: Hi, sorry to bother you, what did the test record for COc1ccccc1N/C=C/c1onc(C)c1[N+](=O)[O-] ?
OUTPUT: inactive

INPUT: Hi, sorry to bother you, what did the test record for c1ccc2c(NCCCN3CCOCC3)c3ccccc3nc2c1 ?
OUTPUT: active

INPUT: Hi, sorry to bother you, what did the test record for OC(CNCC(c1ccc(Cl)cc1Cl)c1c[nH]c2ccccc12)c1ccccc1 (centres undefined) ?
OUTPUT: active

INPUT: Hi, sorry to bother you, what did the test record for CN(C)c1ccc(Nc2nc(N)c3ccccc3n2)cc1 ?
OUTPUT: active
